Values were extracted from the supplement of paper PMC9170038.

# Test system: MS2 coat protein
# experimental protocol: apparent KD of MS2 coat protein; designed switch direction (-1 OFF switch, 1 ON switch): -1; higher = weaker reporter binding
# condition details: input ligand: none
I'd appreciate it if you could supply apparent KD of MS2 coat protein values for the items below.
Give just the numeric value; nM need not be written.

Exam item: Which apparent KD of MS2 coat protein value is on record for CUAGCGAGUGUAGGAUAUCGGACUGUUUCAGUCUGAGAAGGACAUGAGGAUCACCCAUGUAUUGCUGCGUGAGUAGCACGCUAG [JL ENG1 3.99] (Eterna round: R96, puzzle: Exclusion NG 1) ?
Marked response: 19.5

Exam item: I am curious: what apparent KD of MS2 coat protein value has been reported for UAUUAACAAGUAAGAUCCCACAUGAGGAUCACCCAUGUUCGUCUUAUAGGUACUGUGACACAAAGUGUCACGGUACC [Mod of Eli's R95 Sensor 3, v1 - 87] (Eterna round: R97, puzzle: Sensor, turn-off variant 1) ?
Marked response: 44.9

Exam item: Which apparent KD of MS2 coat protein value belongs to GAUUGAGAGCAGGAUAUCUUAGAAAUGUAUUAAAGAGAAGGGCUCACAUGAGGAUCACCCAUGUGGUCCUAGAU [JL Dibiri mod 16] (Eterna round: R96, puzzle: Exclusion 6) ?
Marked response: 26.3
